The origin of these recorded values is patent US10023570B2.

- assayed target: human KDR protein in HEK-293 cells (Homo sapiens (Human))
- test name: KDR Cell Assay (phospho-KDR in HEK-293 cells expressing inducible KDR)
- Type: cell-based
- condition details: pKDR Cell HEK 10% FBS IC50, HEK-293 cells expressing inducible KDR, VEGF stimulated
measured quantity: IC50 (µM)
Just the number please, in µM, no unit attached.

The following compounds have reported results that may help.
> print(dat)
                                   compound  reading.unit  quantitative.result
1  Cc1c(CN2CCN(c3ccc(-c4cc(-c5cnn(C)c5)cn5ncc(C#N)c45)cn3)CC2)cnn1C [Example 435]            µM                 1.33
2  CO[C@@H](C)CN1CCN(c2ccc(-c3cc(-c4cnn(C)c4)cn4ncc(C#N)c34)cn2)CC1 [Example 415]            µM                 2.03
3  Cn1cc(-c2cc(-c3ccc(N4CCN(Cc5ccn(C)n5)CC4)nc3)c3c(C#N)cnn3c2)cn1 [Example 439]            µM                 1.24

Moving on to the next compound.
Provide one value: measured IC50 of COc1cncc(CN2CCN(c3ccc(-c4cc(-c5cnn(C)c5)cn5ncc(C#N)c45)cn3)CC2)c1 [Example 442]
1.67

* * *

- assayed target: N-terminal GST tagged recombinant human RET cytoplasmic domain (aa 658-end), wild type RET kinase (Homo sapiens (Human))
- test name: RET Enzyme Assay (HTRF KinEASE-TK), wild type RET
- Assay type: biochemical
Where a name gives a salt, the structure may show the parent alone.
Listed next: entries and their corresponding pIC50.
Would you please state pIC50, meaning minus log10 of the concentration in mol/L, as a bare number?

The following molecules have reported results that may help.
> print(dat)
                                   molecule  quantitative.result
1  Cn1cc(-c2cc(-c3ccc(N4CCC(O)(C(F)(F)F)CC4)nc3)c3c(C#N)cnn3c2)cn1 [Example 510, 2,2,2-trifluoroacetate]                 8.17
2  CN(C)C(=O)C1CCN(c2ccc(-c3cc(-c4cnn(C)c4)cn4ncc(C#N)c34)cn2)CC1 [Example 562, 2,2,2-trifluoroacetate]                 7.25
3  Cn1cc(-c2cc(-c3ccc(N4CCNCC4)nc3)c3ccnn3c2)cn1 [Example 312, dihydrochloride]                 6.22
4  CN(C)CCCC(=O)N1CCN(c2ccc(-c3cc(-c4cnn(C)c4)cn4ncc(C#N)c34)cn2)CC1 [Example 52, trifluoroacetate]                 7.75

Provide one value: measured pIC50 of Cn1cc(-c2cc(-c3ccc(N4CCNCC4)nc3)c3c(C#N)cnn3c2)cn1 [Example 2, dihydrochloride]
7.71

Provide one value: measured pIC50 of Cn1cc(-c2cc(-c3ccc(N4CCC(C)(N)CC4)nc3)c3c(C#N)cnn3c2)cn1 [Example 202, dihydrochloride]
7.38

Provide one value: measured pIC50 of CC(C)NC(=O)CN1CCN(c2ccc(-c3cc(-c4cnn(C)c4)cn4ncc(C#N)c34)cn2)CC1 [Example 144, 2,2,2-trifluoroacetate]
7.60

Provide one value: measured pIC50 of CN(C)C(=O)CN1CCN(c2ccc(-c3cc(-c4cnn(C)c4)cn4ncc(C#N)c34)cn2)CC1 [Example 143, 2,2,2-trifluoroacetate]
7.47

* * *

- assayed target: N-terminal GST tagged recombinant human RET cytoplasmic domain (aa 658-end), wild type RET kinase (Homo sapiens (Human), UniProt P07949)
- Sequence (P07949 658-1114): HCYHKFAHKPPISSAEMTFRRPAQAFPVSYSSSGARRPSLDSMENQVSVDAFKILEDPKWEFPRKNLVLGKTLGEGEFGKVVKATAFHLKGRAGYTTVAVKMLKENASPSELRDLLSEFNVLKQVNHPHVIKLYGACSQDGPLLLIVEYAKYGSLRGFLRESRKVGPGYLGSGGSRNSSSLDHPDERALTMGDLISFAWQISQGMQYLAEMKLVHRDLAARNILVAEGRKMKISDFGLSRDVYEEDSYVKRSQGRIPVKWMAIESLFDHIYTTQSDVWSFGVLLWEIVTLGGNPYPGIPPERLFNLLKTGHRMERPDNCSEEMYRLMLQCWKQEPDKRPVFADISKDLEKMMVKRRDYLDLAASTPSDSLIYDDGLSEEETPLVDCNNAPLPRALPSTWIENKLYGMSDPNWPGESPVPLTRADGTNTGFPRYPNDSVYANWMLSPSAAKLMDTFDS
- test name: RET Enzyme Assay (HTRF KinEASE-TK), wild type RET
- Type: biochemical
- condition details: wild type RET, 1 mM ATP
Where a name gives a salt, the structure may show the parent alone.
Rule: IC50 below 8 nM gives true. Equal to or above 8 nM gives false.

> print(dat)
                                   compound  label.class
1  CC(C)CC(=O)N1CCN(c2ccc(-c3cc(-c4cnn(C)c4)cn4ncc(C#N)c34)cn2)CC1         true
2  COCC(=O)N1CCN(c2ccc(-c3cc(-c4cnn(C)c4)cn4ncc(C#N)c34)cn2)CC1 [Example 40, trifluoroacetate]        false
3  N#Cc1cnn2cc(-c3cn[nH]c3)cc(-c3ccc(N4CCN(Cc5ccccc5)CC4)nc3)c12         true

Check if IC50 falls below 8 nM for CC(O)CN(C)C(=O)C1CCN(c2ccc(-c3cc(-c4cnn(C)c4)cn4ncc(C#N)c34)cn2)CC1 (stereo not shown) .
false

* * *

- assayed target: human KDR protein in HEK-293 cells (Homo sapiens (Human), UniProt P35968)
- Sequence (P35968 20-1356): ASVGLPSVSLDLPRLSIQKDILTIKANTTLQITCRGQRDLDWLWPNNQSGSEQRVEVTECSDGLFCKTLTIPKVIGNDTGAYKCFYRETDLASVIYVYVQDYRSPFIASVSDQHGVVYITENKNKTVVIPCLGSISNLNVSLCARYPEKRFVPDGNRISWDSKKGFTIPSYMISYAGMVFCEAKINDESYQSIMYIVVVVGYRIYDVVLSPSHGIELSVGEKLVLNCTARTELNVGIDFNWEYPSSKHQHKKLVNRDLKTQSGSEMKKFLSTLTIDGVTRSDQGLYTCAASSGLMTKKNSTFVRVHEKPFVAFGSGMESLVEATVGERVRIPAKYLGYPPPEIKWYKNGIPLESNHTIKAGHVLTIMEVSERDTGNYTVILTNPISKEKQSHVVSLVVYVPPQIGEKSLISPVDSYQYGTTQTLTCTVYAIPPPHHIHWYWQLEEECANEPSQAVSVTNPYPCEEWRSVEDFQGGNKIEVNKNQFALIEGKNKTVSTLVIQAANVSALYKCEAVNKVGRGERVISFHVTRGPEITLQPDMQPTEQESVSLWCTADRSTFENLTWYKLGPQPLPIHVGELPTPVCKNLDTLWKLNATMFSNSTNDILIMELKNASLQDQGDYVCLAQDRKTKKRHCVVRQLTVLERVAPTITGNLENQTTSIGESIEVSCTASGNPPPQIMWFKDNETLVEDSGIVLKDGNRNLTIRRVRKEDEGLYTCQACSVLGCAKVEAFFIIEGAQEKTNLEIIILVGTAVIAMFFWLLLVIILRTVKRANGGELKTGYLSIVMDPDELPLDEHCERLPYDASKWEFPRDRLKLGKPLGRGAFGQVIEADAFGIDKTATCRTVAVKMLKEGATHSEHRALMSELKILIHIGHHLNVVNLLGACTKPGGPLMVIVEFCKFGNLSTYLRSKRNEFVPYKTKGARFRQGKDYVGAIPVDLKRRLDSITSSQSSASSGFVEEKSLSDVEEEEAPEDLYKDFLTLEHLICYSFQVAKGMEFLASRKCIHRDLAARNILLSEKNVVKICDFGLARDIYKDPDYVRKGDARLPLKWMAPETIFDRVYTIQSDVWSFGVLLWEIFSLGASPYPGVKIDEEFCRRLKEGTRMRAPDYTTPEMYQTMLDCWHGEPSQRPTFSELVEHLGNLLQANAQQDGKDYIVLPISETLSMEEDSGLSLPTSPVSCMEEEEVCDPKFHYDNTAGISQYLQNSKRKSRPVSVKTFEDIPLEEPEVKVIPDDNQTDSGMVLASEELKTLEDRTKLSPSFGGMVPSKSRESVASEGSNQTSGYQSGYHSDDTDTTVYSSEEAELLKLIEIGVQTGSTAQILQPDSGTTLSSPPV
- test name: KDR Cell Assay (phospho-KDR in HEK-293 cells expressing inducible KDR)
- Type: cell-based
- condition details: pKDR Cell HEK 10% FBS IC50, HEK-293 cells expressing inducible KDR, VEGF stimulated, 10% FBS
Counter-ions that a name gives are not always drawn.
measured quantity: log10 of IC50 (log10 of the value in nM)
// do not treat as linear: log10 of IC50, unit nM

The following compounds have reported results that may help.
> print(dat)
                                   compound  quantitative.result
1  Cn1cc(-c2cc(-c3ccc(N4CCN(C[C@@H](O)c5ccccc5)CC4)nc3)c3c(C#N)cnn3c2)cn1                 1.62
2  CCN(CC)C(=O)N1CCN(c2ccc(-c3cc(-c4cnn(C)c4)cn4ncc(C#N)c34)cn2)CC1                 3.20
3  Cn1cnc(C(=O)N2CCN(c3ccc(-c4cc(-c5cnn(C)c5)cn5ncc(C#N)c45)cn3)CC2)c1 [Example 36, trifluoroacetate]                 2.33
4  Cn1cc(-c2cc(-c3ccc(N4CCC(C(=O)NCCC(F)(F)F)CC4)nc3)c3c(C#N)cnn3c2)cn1                 2.35
5  CO[C@@H]1CCN(C(=O)N2CCN(c3ccc(-c4cc(-c5cnn(C)c5)cn5ncc(C#N)c45)cn3)CC2)C1                 2.80
6  Cn1cc(-c2cc(-c3ccc(N4CCC(NC(=O)[C@@H]5CCCO5)CC4)nc3)c3c(C#N)cnn3c2)cn1                 2.75
7  Cn1cc(-c2cc(-c3ccc(N4CCN(S(C)(=O)=O)CC4)cc3)c3c(C#N)cnn3c2)cn1                 2.28
8  Cn1cc(-c2cc(-c3ccc(N4CCC(NC(=O)[C@H]5CCCO5)CC4)nc3)c3c(C#N)cnn3c2)cn1                 2.63

Jot down log10 of IC50 (human KDR protein in HEK-293 cells (Homo sapiens (Human), UniProt P35968)) of Cn1cc(-c2cc(-c3ccc(N4CCN(C(=O)Cc5ccn(C)n5)CC4)nc3)c3c(C#N)cnn3c2)cn1 [Example 42, trifluoroacetate] .
2.70

Jot down log10 of IC50 (human KDR protein in HEK-293 cells (Homo sapiens (Human), UniProt P35968)) of CCC(C)(O)CC(=O)N1CCN(c2ccc(-c3cc(-c4cnn(C)c4)cn4ncc(C#N)c34)cn2)CC1 (centres unmarked) .
2.72

Jot down log10 of IC50 (human KDR protein in HEK-293 cells (Homo sapiens (Human), UniProt P35968)) of `CC(=O)N1CCN(c2ccc(-c3cc(-c4cnn(C)c4)cn4ncc(C#N)c34)cc2)CC1` .
2.86

Jot down log10 of IC50 (human KDR protein in HEK-293 cells (Homo sapiens (Human), UniProt P35968)) of `C[C@H](NC(=O)C1CCN(c2ccc(-c3cc(-c4cnn(C)c4)cn4ncc(C#N)c34)cn2)CC1)C(F)(F)F` .
2.45

Jot down log10 of IC50 (human KDR protein in HEK-293 cells (Homo sapiens (Human), UniProt P35968)) of `Cn1cc(-c2cc(-c3ccc(N4CCN(C(=O)C5(c6ccccc6)CCOCC5)CC4)nc3)c3c(C#N)cnn3c2)cn1` .
3.68

Jot down log10 of IC50 (human KDR protein in HEK-293 cells (Homo sapiens (Human), UniProt P35968)) of `C[C@H](O)C(=O)N1CCN(c2ccc(-c3cc(-c4cnn(C)c4)cn4ncc(C#N)c34)cn2)CC1` .
2.96

* * *

Listed next: entries and their corresponding pIC50.
- assayed target: human KDR protein in HEK-293 cells (Homo sapiens (Human), UniProt P35968)
- test name: KDR Cell Assay (phospho-KDR in HEK-293 cells expressing inducible KDR)
- Format: cell-based
- condition details: pKDR Cell HEK 10% FBS IC50, HEK-293 cells expressing inducible KDR, VEGF stimulated
Would you please state pIC50, meaning minus log10 of the concentration in mol/L, as a bare number?

The following compounds have reported results that may help.
> print(dat)
                                   compound  measured.quantity  quantitative.result
1  CC(C)OCCN1CCN(c2ccc(-c3cc(-c4cnn(C)c4)cn4ncc(C#N)c34)cn2)CC1 [Example 392]              pIC50                 6.12
2  COc1ccc(N(C)C(=O)N2CCN(c3ccc(-c4cc(-c5cnn(C)c5)cn5ncc(C#N)c45)cn3)CC2)cc1 [Example 383]              pIC50                 6.19
3  N#Cc1cnn2cc(-c3cn[nH]c3)cc(-c3ccc(N4CCN(Cc5ccccc5)CC4)nc3)c12 [Example 591]              pIC50                 5.83

Provide one value: measured pIC50 of Cn1cc(-c2cc(-c3ccc(N4CCN(Cc5c(F)cccc5F)CC4)nc3)c3c(C#N)cnn3c2)cn1 [Example 441]
6.24

Provide one value: measured pIC50 of Cn1cc(-c2cc(-c3ccc(N4CCN(CC(F)(F)F)CC4)nc3)c3c(C#N)cnn3c2)cn1 [Example 419]
5.72

Provide one value: measured pIC50 of CN(C)C(=O)N1CC2(CCN(c3ccc(-c4cc(-c5cnn(C)c5)cn5ncc(C#N)c45)cn3)CC2)C1 [Example 501]
6.26

Provide one value: measured pIC50 of Cn1cc(-c2cc(-c3ccc(N4CC5CC(C4)N5Cc4ccccn4)nc3)c3c(C#N)cnn3c2)cn1 [Example 693]
5.99

Provide one value: measured pIC50 of Cn1cc(-c2cc(-c3ccc(N4CC5(CCCN5C(=O)OCc5ccccc5)C4)nc3)c3c(C#N)cnn3c2)cn1 [Example 525, 2,2,2-trifluoroacetate]
5.80

Provide one value: measured pIC50 of COc1cccc(CN2CCN(c3ccc(-c4cc(-c5cnn(C)c5)cn5ncc(C#N)c45)cn3)CC2)c1 [Example 450]
6.33

Provide one value: measured pIC50 of CONC(=O)C1CCN(c2ccc(-c3cc(-c4cnn(C)c4)cn4ncc(C#N)c34)cn2)CC1 [Example 564]
6.13

Provide one value: measured pIC50 of CCC1CCN(C(=O)N2CCN(c3ccc(-c4cc(-c5cnn(C)c5)cn5ncc(C#N)c45)cn3)CC2)C1 (centres unmarked) [Example 389]
6.07

Provide one value: measured pIC50 of Cn1cc(-c2cc(-c3ccc(N4CCC5(CCCN(C(=O)OC(C)(C)C)C5)CC4)nc3)c3c(C#N)cnn3c2)cn1 [Example 504]
5.68

Provide one value: measured pIC50 of Cn1cc(-c2cc(-c3ccc(N4CCC(c5ccccc5)C4)nc3)c3c(C#N)cnn3c2)cn1 (centres unmarked) [Example 533, 2,2,2-trifluoroacetate]
5.31

Provide one value: measured pIC50 of Cn1cc(-c2cc(-c3ccc(N4CCN(C(=O)N5CC6CC6C5)CC4)nc3)c3c(C#N)cnn3c2)cn1 (centres unmarked) [Example 380]
6.26
